# System: MCF7S
# experiment_summary: Cytotoxic effect on MCF-7 cell proliferation
# Format: functional
# condition_parameters: Homo sapiens
value_type: IC30 (µM)
Report as a plain number; the unit µM is understood.

Record CC(C)N(CCOc1ccc(C(=C(C#N)c2ccccc2)c2ccc(OCCN(C(C)C)C(C)C)cc2)cc1)C(C)C . Reported IC30: 2.7

Record CC(C)N(CCOc1ccc(C(C#N)=C(c2ccccc2)c2ccccc2)cc1)C(C)C . Reported IC30: 10

Record CCN(CC)CCOc1ccc(C(C#N)=C(c2ccc(O)cc2)c2ccc(O)cc2)cc1 . Reported IC30: 6

* * *

# tested_target: Protein kinase C, PKC; classical (Rattus norvegicus) (UniProt P05696+P68403+P63319)
# experiment_summary: Percent stimulation or inhibition of protein kinase C with [Ca2+] for phosphatidylserine and diolein(PS+DO)
# Type: protein assay
# Set-up: concentration or dose not given beside the values
# condition_parameters: values are per cent of control
# label = y if residual activity < 90% else n

Enquiry: Does the reported residual activity of the following molecule sit strictly below 90%? N#C/C(=C(\c1ccccc1)c1ccc(O)cc1)c1ccccc1
Return: y

Enquiry: Does the reported residual activity of the following molecule sit strictly below 90%? CC/C(=C(\c1ccccc1)c1ccc(OCCN(C)C)cc1)c1ccccc1 [TAMOXIFEN]
Return: y

Enquiry: Does the reported residual activity of the following molecule sit strictly below 90%? COc1ccc(/C(=C(/C#N)c2ccccc2)c2ccc(O)cc2)cc1
Return: n

Enquiry: Does the reported residual activity of the following molecule sit strictly below 90%? CC(C)Oc1ccc(/C(=C(/C#N)c2ccccc2)c2ccc(O)cc2)cc1
Return: n

Enquiry: Does the reported residual activity of the following molecule sit strictly below 90%? CCN(CC)CCOc1ccc(/C(=C(/C#N)c2ccccc2)c2ccc(O)cc2)cc1
Return: y

Enquiry: Does the reported residual activity of the following molecule sit strictly below 90%? CC/C(=C(/c1ccccc1)c1ccc(OCCN(C)C)cc1)c1ccccc1
Return: y

Enquiry: Does the reported residual activity of the following molecule sit strictly below 90%? Cc1ccc(/C(=C(\C#N)c2ccccc2)c2ccc(O)cc2)cc1
Return: y

Enquiry: Does the reported residual activity of the following molecule sit strictly below 90%? Cc1ccc(/C(=C(\C#N)c2ccc(O)cc2)c2ccc(O)cc2)cc1
Return: y

* * *

# tested_target: Protein kinase C, PKC; classical (Rattus norvegicus) (UniProt P05696+P68403+P63319)
# experiment_summary: Percent stimulation or inhibition of protein kinase C with [Ca2+] for phosphatidylserine (PS)
# Assay type: protein assay
value_type: residual activity (%)
Report as a plain number; the unit % is understood.

# residual activity measured on Protein kinase C, PKC; classical (Rattus norvegicus) (UniProt P05696+P68403+P63319) for item CC(C)Oc1ccc(/C(=C(/C#N)c2ccccc2)c2ccc(O)cc2)cc1 = 170

# residual activity measured on Protein kinase C, PKC; classical (Rattus norvegicus) (UniProt P05696+P68403+P63319) for item CC/C(=C(/c1ccccc1)c1ccc(OCCN(C)C)cc1)c1ccccc1 = 36

# residual activity measured on Protein kinase C, PKC; classical (Rattus norvegicus) (UniProt P05696+P68403+P63319) for item CCN(CC)CCOc1ccc(/C(=C(/C#N)c2ccccc2)c2ccc(O)cc2)cc1 = 20

# residual activity measured on Protein kinase C, PKC; classical (Rattus norvegicus) (UniProt P05696+P68403+P63319) for item COc1ccc(/C(=C(/C#N)c2ccccc2)c2ccc(O)cc2)cc1 = 100

* * *

Consider the following molecules; for each one, report its IC30.
# Test system: BT-20
# experiment_summary: Cytotoxic effect on ER-negative BT20 cell proliferation
# Type: functional
# condition_parameters: Homo sapiens
Phrase the answer as number then unit, nothing more needed.

Record CC(C)C=C(c1ccc(O)cc1)c1ccc(O)cc1 . Reported IC30: 8.4 µM

Record CC(C)N(CCOc1ccc(C(=C(C#N)c2ccccc2)c2ccc(OCCN(C(C)C)C(C)C)cc2)cc1)C(C)C . Reported IC30: 3.2 µM

Record NCC(=C(c1ccc(O)cc1)c1ccc(O)cc1)c1ccccc1 . Reported IC30: 20 µM

Record CC(C)CCOc1ccc(C(=C(C#N)c2ccccc2)c2ccc(OCCC(C)C)cc2)cc1 . Reported IC30: 9 µM

Record CC(C)N(CCOc1ccc(C(C#N)=C(c2ccccc2)c2ccccc2)cc1)C(C)C . Reported IC30: 9 µM

Record CCN(CC)CCOc1ccc(C(C#N)=C(c2ccc(O)cc2)c2ccc(O)cc2)cc1 . Reported IC30: 3 µM

Record CC(C)C(Cl)=C(c1ccc(O)cc1)c1ccc(O)cc1 . Reported IC30: 7.6 µM

* * *

# tested_target: Protein kinase C, PKC; classical (Rattus norvegicus) (UniProt P05696+P68403+P63319)
# experiment_summary: The percent stimulation or inhibition of protein kinase C III activity was determined for phosphatidylserine (PS) and diolein(PS+DO) in the presence of [Ca2+]
# Type: protein assay
# Parameters: concentration or dose not given beside the values
# condition_parameters: values are per cent of control
value_type: residual activity (%)
Report as a plain number; the unit % is understood.

Record Oc1ccc(C(=C2CCCCC2)c2ccc(O)cc2)cc1 . Reported residual activity: 81

Record C[C@]12CC[C@@H]3c4ccc(O)cc4CC[C@H]3[C@@H]1CC[C@@H]2O [ESTRADIOL] . Reported residual activity: 89

Record CCC(=C(c1ccc(O)cc1)c1ccc(OCCN(C)C)cc1)c1ccccc1 . Reported residual activity: 2

Record CCN(CC)CCOc1ccc(C(C#N)=C(c2ccc(O)cc2)c2ccc(O)cc2)cc1 . Reported residual activity: 0

* * *

# tested_target: Protein kinase C, PKC; classical (Rattus norvegicus) (UniProt P05696+P68403+P63319)
# experiment_summary: Percent stimulation or inhibition of protein kinase C with [Ca2+] for phosphatidylserine (PS)
# Assay type: protein assay
# condition_parameters: values are per cent of control
value_type: residual activity

# residual activity measured on Protein kinase C, PKC; classical (Rattus norvegicus) (UniProt P05696+P68403+P63319) for item CC(C)N(CCOc1ccc(C(C#N)=C(c2ccccc2)c2ccccc2)cc1)C(C)C = 46%

# residual activity measured on Protein kinase C, PKC; classical (Rattus norvegicus) (UniProt P05696+P68403+P63319) for item Cc1ccc(/C(=C(\C#N)c2ccc(O)cc2)c2ccc(O)cc2)cc1 = 88%

# residual activity measured on Protein kinase C, PKC; classical (Rattus norvegicus) (UniProt P05696+P68403+P63319) for item Cc1ccc(/C(=C(\C#N)c2ccccc2)c2ccc(O)cc2)cc1 = 119%

# residual activity measured on Protein kinase C, PKC; classical (Rattus norvegicus) (UniProt P05696+P68403+P63319) for item CN(C)Cc1cc(C(=C(C#N)c2ccccc2)c2ccc(O)c(CN(C)C)c2)ccc1O = 26%

* * *

# tested_target: Protein kinase C, PKC; classical (Rattus norvegicus) (UniProt P05696+P68403+P63319)
# experiment_summary: The percent stimulation or inhibition of protein kinase C III activity was determined for phosphatidylserine (PS) and diolein(PS+DO) in the presence of [Ca2+]
# Type: protein assay
# Parameters: concentration or dose not given beside the values
# condition_parameters: values are per cent of control
# label = Y if residual activity < 80% else N

Enquiry: Does the reported residual activity of the following compound sit strictly below 80%? Oc1ccc(C(=C2CCCC2)c2ccc(O)cc2)cc1
Return: Y

Enquiry: Does the reported residual activity of the following compound sit strictly below 80%? COc1ccc(C(=C(C#N)c2ccccc2)c2ccc(OC)cc2)cc1
Return: N

Enquiry: Does the reported residual activity of the following compound sit strictly below 80%? CC(C)N(CCOc1ccc(C(=C(C#N)c2ccccc2)c2ccc(OCCN(C(C)C)C(C)C)cc2)cc1)C(C)C
Return: Y

Enquiry: Does the reported residual activity of the following compound sit strictly below 80%? CC(C)Oc1ccc(C(=C(C#N)c2ccccc2)c2ccc(OC(C)C)cc2)cc1
Return: N

Enquiry: Does the reported residual activity of the following compound sit strictly below 80%? CC(C)N(CCOc1ccc(C(C#N)=C(c2ccccc2)c2ccccc2)cc1)C(C)C
Return: Y

Enquiry: Does the reported residual activity of the following compound sit strictly below 80%? CCN(CC)CCOc1ccc(/C(=C(\C#N)c2ccccc2)c2ccc(O)cc2)cc1
Return: Y

Enquiry: Does the reported residual activity of the following compound sit strictly below 80%? CC(C)C(Cl)=C(c1ccc(O)cc1)c1ccc(O)cc1
Return: N

Enquiry: Does the reported residual activity of the following compound sit strictly below 80%? Cc1ccc(C(C#N)=C(c2ccc(O)cc2)c2ccc(O)cc2)cc1
Return: Y

Enquiry: Does the reported residual activity of the following compound sit strictly below 80%? NCC(=C(c1ccc(O)cc1)c1ccc(O)cc1)c1ccccc1
Return: Y

* * *

# tested_target: Protein kinase C, PKC; classical (Rattus norvegicus) (UniProt P05696+P68403+P63319)
# experiment_summary: The percent stimulation or inhibition of protein kinase C III activity was determined for phosphatidylserine (PS) and diolein(PS+DO) in the presence of [Ca2+]
# Format: protein assay
# Design: concentration or dose not given beside the values
# condition_parameters: values are per cent of control
Consider the following compounds; for each one, report its residual activity.

Record N#C/C(=C(\c1ccccc1)c1ccc(O)cc1)c1ccc(O)cc1 . Reported residual activity: 91%

Record N#C/C(=C(/c1ccccc1)c1ccc(O)cc1)c1ccc(O)cc1 . Reported residual activity: 87%

Record CCN(CC)CCOc1ccc(C(C#N)=C(c2ccccc2)c2ccccc2)cc1 . Reported residual activity: 20%

Record N#CC(=C(c1ccc(O)cc1)c1ccc(O)cc1)c1ccc(O)cc1 . Reported residual activity: 32%

Record N#C/C(=C(/c1ccccc1)c1ccc(O)cc1)c1ccccc1 . Reported residual activity: 104%

Record N#CC(=C(c1ccc(O)cc1)c1ccc(O)cc1)c1ccccc1 . Reported residual activity: 42%

Record N#CC(=C(c1ccccc1)c1ccccc1)c1ccc(O)cc1 . Reported residual activity: 113%

Record CC(C)CCOc1ccc(C(=C(C#N)c2ccccc2)c2ccc(OCCC(C)C)cc2)cc1 . Reported residual activity: 86%

Record CC(C)C=C(c1ccc(O)cc1)c1ccc(O)cc1 . Reported residual activity: 70%

Record CC(C)Oc1ccc(/C(=C(\C#N)c2ccccc2)c2ccc(O)cc2)cc1 . Reported residual activity: 101%

Record N#CC(=C(c1ccccc1)c1ccccc1)c1ccccc1 . Reported residual activity: 106%

Taken from ChEMBL document CHEMBL1126156.
